Here, each record is paired with measured MIC data.
test system: Pichia kudriavzevii; test: Antimicrobial activity against Candida krusei isolate 31 after 48 hrs by microdilution broth method; type: functional; conditions: isolate 31, 48 h
I only need the number, in mg/L, no unit after it.

Recorded MIC, per entry:
{"columns": ["molecule", "test system", "output unit", "MIC"],
 "data": [
  ["Cc1cc(-c2nn(C)c(C)c2/[N+]([O-])=N/C#N)no1", "Pichia kudriavzevii", "mg/L", 128],
  ["OC(Cn1cncn1)(Cn1cncn1)c1ccc(F)cc1F [FLUCONAZOLE]", "Pichia kudriavzevii", "mg/L", 32],
  ["C[C@@H]1[C@H](O)[C@@H](C)/C=C/C=C/C=C/C=C/C=C/C=C/C=C/[C@H](O[C@@H]2O[C@H](C)[C@@H](O)[C@H](N)[C@@H]2O)C[C@@H]2O[C@](O)(C[C@@H](O)C[C@@H](O)[C@H](O)CC[C@@H](O)C[C@@H](O)CC(=O)O[C@H]1C)C[C@H](O)[C@H]2C(=O)O [AMPHOTERICIN B]", "Pichia kudriavzevii", "mg/L", 0.5]
]}

Switching to the query record.
May I ask what MIC has been recorded for CC[C@@H]([C@H](C)O)n1ncn(-c2ccc(N3CCN(c4ccc(OC[C@@H]5CO[C@@](Cn6cncn6)(c6ccc(F)cc6F)C5)cc4)CC3)cc2)c1=O [POSACONAZOLE] ?
0.25

* * *

system: Pichia kudriavzevii; assay: Antimicrobial activity against Candida krusei isolate 48 after 48 hrs by microdilution broth method; format: functional
measured endpoint: MIC (µg/mL)
Report as a plain number; the unit µg/mL is understood.

Solved entries:
{"columns": ["molecule", "output unit", "MIC"],
 "data": [
  ["C[C@@H](c1ncncc1F)[C@](O)(Cn1cncn1)c1ccc(F)cc1F [VORICONAZOLE]", "µg/mL", 0.25],
  ["Cc1nn(C)c(C)c1/[N+]([O-])=N/C#N", "µg/mL", 32]
]}

Turning now to a further molecule:
Return reported MIC; argument: Cc1c(/[N+]([O-])=N/C#N)c(-c2ccccn2)nn1C
8

* * *

Listing of entries alongside the reported MIC.
tested on: Pichia kudriavzevii; test: Antimicrobial activity against Candida krusei ATCC 6258 after 48 hrs by microdilution broth method; assay type: functional; settings: ATCC 6258, 48 h
Please format your answer as a value with the unit trailing.

Example results:
{"columns": ["cpd smiles", "MIC"],
 "data": [
  ["C[C@@H](c1ncncc1F)[C@](O)(Cn1cncn1)c1ccc(F)cc1F", "0.25 µg/mL"],
  ["Cc1cc(-c2nn(C)c(C)c2/[N+]([O-])=N/C#N)on1", "32 µg/mL"],
  ["Cc1nn(C)c(-c2cccs2)c1/[N+]([O-])=N/C#N", "1 µg/mL"]
]}

We next turn to a different compound, shown below.
# MIC lookup, item Cc1cc(-c2c(/[N+]([O-])=N/C#N)c(C)nn2C)no1
16 µg/mL

* * *

Recorded measurements of MIC, one per entry
tested on: Pichia kudriavzevii; assay: Antimicrobial activity against Candida krusei isolate 31 after 48 hrs by microdilution broth method; assay type: functional; conditions: isolate 31, 48 h

Examples from the recorded data:
{"columns": ["cpd smiles", "test system", "MIC"],
 "data": [
  ["Cc1c(/[N+]([O-])=N/C(N)=O)c(-c2cccs2)nn1C", "Pichia kudriavzevii", "> 128 µg/mL"],
  ["Cc1cc(-c2nn(C)c(C)c2/[N+]([O-])=N/C#N)nn1C", "Pichia kudriavzevii", "> 128 µg/mL"]
]}

# lookup: MIC of Cc1ccc(S(=O)(=O)/N=[N+](\[O-])c2c(-c3cccs3)nn(C)c2C)cc1
> 128 µg/mL

* * *

MIC listing for selected molecules.
system: Cryptococcus deneoformans; experiment: Antimicrobial activity against Cryptococcus neoformans var. neoformans isolate 14 after 48 hrs by microdilution broth method; type: functional; conditions: isolate 14, 48 h
The answer is to be given in µg/mL; state only the numeric part.

Worked cases, MIC given:
{"columns": ["cpd smiles", "MIC / µg/mL"],
 "data": [
  ["Cc1c(/[N+]([O-])=N/C#N)c(-c2cccs2)nn1C", 2],
  ["Cc1c(/[N+]([O-])=N/C(N)=O)c(-c2cccs2)nn1C", 64]
]}

Give its MIC value. Item: Cc1c(/[N+]([O-])=N/C#N)c(-c2ccco2)nn1C
0.25

All values here come from ChEMBL document CHEMBL1777788.
